- Test system: T1, recombinant LILRA1 ECD (human, UniProt O75019 17-461)
- T1 construct: whole canonical entry named; also called LILA1
- T1 sequence (O75019 17-461 limits assumed): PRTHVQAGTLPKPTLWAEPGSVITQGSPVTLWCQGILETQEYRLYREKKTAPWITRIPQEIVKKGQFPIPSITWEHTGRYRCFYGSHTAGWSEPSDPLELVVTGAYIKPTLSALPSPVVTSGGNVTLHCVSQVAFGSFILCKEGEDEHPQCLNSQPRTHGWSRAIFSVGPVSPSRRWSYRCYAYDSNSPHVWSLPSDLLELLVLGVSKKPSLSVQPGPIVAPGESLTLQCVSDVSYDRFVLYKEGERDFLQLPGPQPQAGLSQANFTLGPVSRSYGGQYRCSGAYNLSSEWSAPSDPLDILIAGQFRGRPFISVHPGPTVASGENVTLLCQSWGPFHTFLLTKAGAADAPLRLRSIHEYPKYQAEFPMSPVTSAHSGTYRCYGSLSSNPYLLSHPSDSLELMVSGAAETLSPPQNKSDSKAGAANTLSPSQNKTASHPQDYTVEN
- Assay method text: BLI, IgG on AHC sensor, ECD in solution
Measure: Kd (nM)
Give the quantity in nM, number only.

Task item: // lookup Kd for A-008 (antibody, V domains shown, tested as IgG) VH: QVQLVQSGAEVKKPGSSVKVSCKASGGTFAESAILWVRQAPGQGLEWMGGIVPSFYSANYAQKFQGRVTITADESTSTAYMELSSLRSEDTAVYYCAKDLGTYSSGWPYYYGMDVWGQGTTVTVSS VL: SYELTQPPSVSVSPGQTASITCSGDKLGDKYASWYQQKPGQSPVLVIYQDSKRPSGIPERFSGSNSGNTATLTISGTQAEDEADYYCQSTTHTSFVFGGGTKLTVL
Reply: 1520

Task item: Entry to check: A-027 (antibody, V domains shown, tested as IgG) VH: QVQLVQSGAEVKKPGSSVKVSCKASGGSFTGYAISWVRQAPGQGLEWMGGILPSFYTAVYAQKFQGRVTITADESTSTAYMELSSLRSEDTAVYYCAKGPPVGSSSWYTDWYFDLWGRGTLVTVSS VL: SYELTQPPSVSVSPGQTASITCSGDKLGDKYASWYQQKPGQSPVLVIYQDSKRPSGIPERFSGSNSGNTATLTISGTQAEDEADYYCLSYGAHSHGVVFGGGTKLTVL
Reply: 33.9
